Measured values drawn from ChEMBL document CHEMBL1201862 for this set.

- Test system: TK-10
- Test Name: NCI tumour cell line growth inhibition, 48 h
Calls of active or inactive are those of the source. No stated cut-off is given here; in the data, active = GI50 up to about 1.1 µM and inactive = higher.
Measured Metric: GI50

Consider the reported GI50 for these compounds:
1) O=C(O)C1C(C(=O)O)C2C(=O)C=CC1N2Cc1ccccc1 (centres undefined)
2.84 µM (inactive)
2) Cc1cc(=O)oc2c1cc(OCC(=O)OCCN1CCCCC1)c1occ(C)c12
> 100 µM (inactive)
3) COc1ccc(Br)c(/C=N\c2cccc3cc(OC)c(OC)cc23)c1
28.1 µM (inactive)

Please report GI50 for every entry that follows.
1. CCCC(=O)Nc1ncnc2c1ncn2C1OC2COP(=O)(O)OC2C1OC(=O)CCC (centres undefined)
2. O=C(N/C=C/C=C/Sc1ccccc1)OCc1ccccc1
3. CC(=O)O[C@H]1C(=O)[C@@]2(C)[C@H]([C@H](OC(=O)c3ccccc3)[C@]3(O)C[C@H](OC(=O)[C@H](O)[C@@H](NC(=O)C(C)(O)C(C)O)c4ccccc4)C(C)=C1C3(C)C)[C@]1(OC(C)=O)CO[C@@H]1C[C@@H]2O (some centres undefined)

OUTPUT:
["> 1000 µM (inactive)", "24.3 µM (inactive)", "5.69 µM (inactive)"]
